# Tested on: HT29 RNF43 G659fs (RNF43 659mut, CRISPR-edited)
# experiment-summary: cell viability activity relative to DMSO (negative = inhibition); higher = more viable cells (less growth inhibition)
# condition-description: 5 µM; 96 h
readout-type: cell viability activity
Quick note: unit goes after the number.

Recorded results for 2 compounds are shown here.
{"structure": "N#Cc1cn([C@@H]2O[C@H](CO)[C@@H](O)[C@H]2O)c2ncnc(N)c12", "tested-on": "HT29 RNF43 G659fs (RNF43 659mut, CRISPR-edited)", "cell viability activity": "-94.2%"}
{"structure": "CN(C)C(=S)SSC(=S)N(C)C", "tested-on": "HT29 RNF43 G659fs (RNF43 659mut, CRISPR-edited)", "cell viability activity": "-72.8%"}

Consider now this further compound.
Ask: Give recorded cell viability activity. `CC(=O)O[C@H]1C[C@H](O[C@H]2[C@@H](O)C[C@H](O[C@H]3[C@@H](O)C[C@H](O[C@H]4CC[C@@]5(C)[C@H](CC[C@@H]6[C@@H]5C[C@@H](O)[C@]5(C)[C@@H](C7=CC(=O)OC7)CC[C@]65O)C4)O[C@@H]3C)O[C@@H]2C)O[C@H](C)[C@H]1O[C@@H]1O[C@H](CO)[C@@H](O)[C@H](O)[C@H]1O`
Reply: -89.7%

====

# Test system: HT29 RNF43 G659fs (RNF43 659mut, CRISPR-edited)
# experiment-summary: cell viability activity relative to DMSO (negative = inhibition); higher = more viable cells (less growth inhibition)
# condition-description: 5 µM; 96 h
Each entry below carries its reported cell viability activity.
Numeric answer only, unit % assumed.

Ask: Give recorded cell viability activity. `C[C@]12O[C@H](C[C@]1(O)CO)n1c3ccccc3c3c4c(c5c6ccccc6n2c5c31)CNC4=O`
Reply: -88.5

Ask: Give recorded cell viability activity. `C[C@@H]1CC[C@@]2(OC1)O[C@H]1C[C@H]3[C@@H]4CC=C5C[C@@H](O[C@@H]6O[C@H](CO)[C@@H](O[C@@H]7O[C@@H](C)[C@H](O)[C@@H](O)[C@H]7O)[C@H](O)[C@H]6O[C@@H]6O[C@@H](C)[C@H](O)[C@@H](O)[C@H]6O)CC[C@]5(C)[C@H]4CC[C@]3(C)[C@H]1[C@@H]2C`
Reply: -25.8

Ask: Give recorded cell viability activity. `COc1ccc(CCN2CCC(Nc3nc4ccccc4n3Cc3ccc(F)cc3)CC2)cc1`
Reply: -23.2

====

# Test system: HT29 sg-Ctrl (RNF43 wildtype)
# experiment-summary: cell viability activity relative to DMSO (negative = inhibition); higher = more viable cells (less growth inhibition)
# condition-description: 5 µM; 96 h
readout-type: cell viability activity

{"structure": "C=C(C)[C@H]1Cc2c(ccc3c2O[C@@H]2COc4cc(OC)c(OC)cc4[C@@H]2C3=O)O1", "tested-on": "HT29 sg-Ctrl (RNF43 wildtype)", "readout-type": "cell viability activity", "result": "-75.8%"}
{"structure": "N#CC(C#N)=NNc1cccc(Cl)c1", "tested-on": "HT29 sg-Ctrl (RNF43 wildtype)", "readout-type": "cell viability activity", "result": "-68.2%"}

Ask: Give recorded cell viability activity. `C/C(=C\c1csc(C)n1)[C@@H]1C[C@@H]2O[C@]2(C)CCC[C@H](C)[C@H](O)[C@@H](C)C(=O)C(C)(C)[C@@H](O)CC(=O)O1`
Reply: -72.3%

Ask: Give recorded cell viability activity. `CC[C@@H](C(=O)[C@@H](C)[C@@H](O)[C@H](C)[C@@H]1O[C@@H]([C@@H](CC)C(=O)O)CC[C@@H]1C)[C@H]1O[C@]2(C=C[C@@H](O)[C@]3(CC[C@@](C)([C@H]4CC[C@](O)(CC)[C@H](C)O4)O3)O2)[C@H](C)C[C@@H]1C`
Reply: -71.9%

Ask: Give recorded cell viability activity. `CC[C@@H]1/C=C/C=C/C[C@H](C)[C@H](O)[C@](C)(O)C(=O)[C@H](C)[C@@H](O)[C@H](C)C(=O)[C@H](C)[C@@H](O)[C@H](C)/C=C/C(=O)O[C@H]2[C@@H](C)[C@@H](CC1)O[C@@]1(CC[C@@H](C)[C@@H](C[C@H](C)O)O1)[C@@H]2C`
Reply: -42.2%

Ask: Give recorded cell viability activity. `O=Cc1cn(Cc2ccc(Cl)cc2)c2ccccc12`
Reply: -88.6%

Ask: Give recorded cell viability activity. `CC[C@@]1(O)C(=O)OCc2c1cc1n(c2=O)Cc2cc3ccccc3nc2-1`
Reply: -91.5%

====

# Tested on: HT29 sg-Ctrl (RNF43 wildtype)
# experiment-summary: cell viability activity relative to DMSO (negative = inhibition); higher = more viable cells (less growth inhibition)
# condition-description: 5 µM; 96 h
readout-type: cell viability activity (%)
Numeric answer only, unit % assumed.

Recorded results for 5 molecules are shown here.
{"structure": "c1ccc2c(c1)[I+]c1ccccc1-2", "tested-on": "HT29 sg-Ctrl (RNF43 wildtype)", "readout-type": "cell viability activity", "recorded-number": -52.1}
{"structure": "C[C@]12CC[C@H]3[C@@H](CC[C@]4(O)C[C@@H](O)CC[C@]34C=O)[C@@]1(O)CC[C@@H]2C1=CC(=O)OC1", "tested-on": "HT29 sg-Ctrl (RNF43 wildtype)", "readout-type": "cell viability activity", "recorded-number": -75.5}
{"structure": "C/C(=C\\c1csc(C)n1)[C@@H]1C[C@@H]2O[C@@H]2CCC[C@H](C)[C@H](O)[C@@H](C)C(=O)C(C)(C)[C@@H](O)CC(=O)O1", "tested-on": "HT29 sg-Ctrl (RNF43 wildtype)", "readout-type": "cell viability activity", "recorded-number": -51.9}
{"structure": "O=C1C=C2C=C[C@@H]3C[C@@]2(O1)[C@H]1CCCCN31", "tested-on": "HT29 sg-Ctrl (RNF43 wildtype)", "readout-type": "cell viability activity", "recorded-number": -6.19}
{"structure": "CC(=O)O[C@@]12CO[C@@H]1C[C@H](O)[C@@]1(C)C(=O)[C@H](O)C3=C(C)[C@@H](O)C[C@@](O)([C@@H](OC(=O)c4ccccc4)[C@H]21)C3(C)C", "tested-on": "HT29 sg-Ctrl (RNF43 wildtype)", "readout-type": "cell viability activity", "recorded-number": -62.6}

Consider now this further molecule.
Ask: Give recorded cell viability activity. `COc1cc2cc(c1Cl)N(C)C(=O)C[C@H](OC(=O)C(C)C)[C@]1(C)O[C@@H]1[C@H](C)[C@@H]1C[C@@](O)(NC(=O)O1)[C@H](OC)/C=C/C=C(\C)C2`
Reply: -61.7

====

Each entry below carries its reported cell viability activity.
# Test system: HT29 RNF43 G659fs (RNF43 659mut, CRISPR-edited)
# experiment-summary: cell viability activity relative to DMSO (negative = inhibition); higher = more viable cells (less growth inhibition)
# condition-description: 5 µM; 96 h
Numeric answer only, unit % assumed.

{"structure": "C/C1=C/C[C@@H](/C(C)=C/c2csc(C)n2)OC(=O)C[C@H](O)C(C)(C)C(=O)[C@H](C)[C@@H](O)[C@@H](C)CCC1", "recorded-number": -63.7}
{"structure": "C[C@@H]1O[C@@H](O[C@@H]2C=C3CC[C@@H]4[C@H](CC[C@]5(C)[C@@H](c6ccc(=O)oc6)CC[C@]45O)[C@@]3(C)CC2)[C@H](O)[C@H](O)[C@H]1O", "recorded-number": -81.8}
{"structure": "C[C@]12CC[C@H]3[C@@H](CC[C@]4(O)C[C@@H](O)CC[C@]34C=O)[C@@]1(O)CC[C@@H]2C1=CC(=O)OC1", "recorded-number": -81.8}
{"structure": "C/C(=C\\c1csc(C)n1)[C@@H]1C[C@@H]2O[C@@H]2CCC[C@H](C)[C@H](O)[C@@H](C)C(=O)C(C)(C)[C@@H](O)CC(=O)O1", "recorded-number": -69}

Ask: Give recorded cell viability activity. `CC(C)(C)c1cc(C=C(C#N)C#N)cc(C(C)(C)C)c1O`
Reply: -79.1

Ask: Give recorded cell viability activity. `O=[N+]([O-])C=Cc1ccc2c(c1)OCO2`
Reply: -25.8

Ask: Give recorded cell viability activity. `COC(=O)NC(=S)Nc1ccccc1NC(=S)NC(=O)OC`
Reply: -31.4

Ask: Give recorded cell viability activity. `C[C@@]1(CO)[C@H](O)CC[C@@]2(C)[C@H]1CC[C@H]1C[C@@H]3C[C@@]12CC[C@]3(O)CO`
Reply: -31.8

Ask: Give recorded cell viability activity. `CCN(CC)CCO[C@H]1CC[C@@]2(C)C(=CC[C@@H]3[C@@H]2CC[C@]2(C)C(=O)CC[C@@H]32)C1`
Reply: -67.5

Ask: Give recorded cell viability activity. `NC(=O)c1cn([C@@H]2O[C@H](CO)[C@@H](O)[C@H]2O)c2ncnc(N)c12`
Reply: -95.1

Ask: Give recorded cell viability activity. `c1ccc2c(c1)[I+]c1ccccc1-2`
Reply: -61.9

Ask: Give recorded cell viability activity. `O=C1/C(=C/c2ccccc2)C[C@@]2(O)C3Cc4ccc(O)c5c4[C@@]2(CCN3CC2CC2)[C@H]1O5`
Reply: -81.4

Ask: Give recorded cell viability activity. `COc1cccc2c1C(=O)c1c(O)c3c(c(O)c1C2=O)C[C@@](O)(C(=O)CO)C[C@@H]3O[C@H]1C[C@H](N2CCO[C@H](OC)C2)[C@H](O)[C@H](C)O1`
Reply: -96.6

Ask: Give recorded cell viability activity. `C/C(=C\c1csc(C)n1)[C@@H]1C[C@@H]2O[C@]2(C)CCC[C@H](C)[C@H](O)[C@@H](C)C(=O)C(C)(C)[C@@H](O)CC(=O)O1`
Reply: -51.7

Ask: Give recorded cell viability activity. `CO[C@H]1C[C@H](O[C@H]2CC[C@@]3(C)[C@H](CC[C@@H]4[C@@H]3CC[C@]3(C)[C@@H](C5=CC(=O)OC5)[C@@H](OC(C)=O)C[C@]43O)C2)O[C@@H](C)[C@@H]1O`
Reply: -84.3
